- method.notes: Acute toxicity in mice after intraperitoneal and oral administration
- experimental.parameters: mouse, in vivo, ip; female albino Swiss mice, intraperitoneal, mortality recorded 7 days after administration; read-out: Acute Toxicity in Mice LD50 (mg/kg) i.p.
Each entry below carries its recorded LD50 at 168 h.
Reply with just the number (in mg/kg).

As a guide, the following entries are already answered.
compound: COc1ccccc1N1CCN(CCCN(C(N)=O)c2cccc3c(=O)c(C)c(-c4ccccc4)oc23)CC1 [Example 50, methanesulphonate hemihydrate]
measured.number: 211
//
compound: COc1cccc(OC)c1OCCNCCOc1cccc2c(=O)c(C)c(-c3ccccc3)oc12.Cl [Example 44]
measured.number: 84
//
compound: Cc1c(-c2ccccc2)oc2c(C(=O)NCCCNCC3COc4ccccc4O3)cccc2c1=O (centres unmarked) [Example 52]
measured.number: 127

Data request, read-out LD50 at 168 h, for COc1ccccc1N1CCN(CCOCc2cccc3c(=O)c(C)c(-c4ccccc4)oc23)CC1.Cl.Cl [Example 27]
399

Data request, read-out LD50 at 168 h, for COc1ccccc1N1CCN(CCN(C)C(=O)c2cccc3c(=O)c(C)c(-c4ccccc4)oc23)CC1.Cl [Example 16]
345

Data request, read-out LD50 at 168 h, for COc1ccccc1N1CCN(CCNC(=O)/C=C/c2cccc3c(=O)c(C)c(-c4ccccc4)oc23)CC1 [Example 72]
479

Data request, read-out LD50 at 168 h, for COc1ccccc1N1CCN(CCOC(=O)c2cccc3c(=O)c(C)c(-c4ccccc4)oc23)CC1.Cl.Cl [Example 6]
233

###

- target.desc: α₁ receptors
- method.notes: [3H]prazosin binding (α1 receptors), rat cerebral cortex membranes
- experimental.parameters: rat cerebral cortex crude membranes, [3H]prazosin 0.35 nM, 25°C 30 min; read-out: Receptor Binding IC50 (nM) α1
Rule for this label: 1.0 means IC50 is less than 40 nM; 0.0 means IC50 is at least 40 nM.

Field: example entries. Status: answers known.
compound: COc1ccccc1N1CCN(CCCCS(=O)(=O)c2cccc3c(=O)c(C)c(-c4ccccc4)oc23)CC1 [Example 84]
label.value: 1.0

compound: Cc1ccccc1N1CCN(CC(O)c2cccc3c(=O)c(C)c(-c4ccccc4)oc23)CC1.Cl (centres unmarked) [Example 18, hydrochloride]
label.value: 0.0

compound: COc1ccccc1N1CCN(CCOc2cccc3c(=O)c(C)c(-c4ccccc4)oc23)CC1.Cl.O [Example 39, hydrochloride hydrate]
label.value: 0.0

compound: COc1ccccc1N1CCN(CCOC(=O)Cc2cccc3c(=O)c(C)c(-c4ccccc4)oc23)CC1.Cl.Cl [Example 66, dihydrochloride]
label.value: 0.0

compound: COc1ccccc1N1CC[N+]([O-])(CCCOc2cccc3c(=O)c(C)c(-c4ccccc4)oc23)CC1 [Example 43]
label.value: 0.0

Does the reported IC50 of COc1ccccc1N1CCN(CCCNC(=O)c2cccc3c2OCCC3=O)CC1.CS(=O)(=O)O [Example 87, methanesulphonate] stay below 40 nM?
0.0

Does the reported IC50 of COc1ccccc1OCCN(C)CCCNC(=O)c1cccc2c(=O)c(C)c(-c3ccccc3)oc12.Cl [Example 62, hydrochloride] stay below 40 nM?
0.0

Does the reported IC50 of COc1ccccc1N1CCN(CCCN(O)C(=O)c2cccc3c(=O)c(C)c(-c4ccccc4)oc23)CC1 [Example 71] stay below 40 nM?
0.0
